compounds and their reported solubility at 8 h
Test: Solubility of compound in phosphate buffer at pH 7.4 after 8 hrs by HPLC analysis
Assay type: physicochemical

Look up and state reported solubility at 8 h for Cc1nc(C)c(/C=C/C(=O)N2CCC=C(Cl)C2=O)nc1C
74.6 µg/mL

Look up and state reported solubility at 8 h for COc1cc(/C=C/C(=O)N2CCC=CC2=O)cc(OC)c1OC [PIPLARTINE]
0.32 µg/mL

Look up and state reported solubility at 8 h for Cc1nc(C)c(/C=C/C(=O)N2CCC=C(Br)C2=O)nc1C
67.3 µg/mL

Look up and state reported solubility at 8 h for Cc1nc(C)c(/C=C/C(=O)N2CCC=CC2=O)nc1C
328 µg/mL

Look up and state reported solubility at 8 h for Cc1nc(C)c(/C=C/C(=O)N2CCC=C(I)C2=O)nc1C
49.9 µg/mL

###

Tested on: K562
Test: Antiproliferative activity against human K562 cells after 72 hrs by MTT assay
Type: functional, cell-based
Conditions: K562, 72 h
reportedEndpoint: log10 of IC50 (log10 of the value in µM)
Please note: log10 values; quantity IC50; unit µM.

Worked examples follow.
compound | system | log10 of IC50
Cc1nc(C)c(/C=C/C(=O)N2CCC=CC2=O)nc1C | K562 | 0.05
COc1cc(/C=C/C(=O)N2CCC=CC2=O)cc(OC)c1OC [PIPLARTINE] | K562 | 0.70
Cc1nc(C)c(/C=C/C(=O)N2CCC=C(I)C2=O)nc1C | K562 | -0.19

Look up and state reported log10 of IC50 for Cc1nc(C)c(/C=C/C(=O)N2CCC=C(Cl)C2=O)nc1C
-0.60

Look up and state reported log10 of IC50 for Cc1nc(C)c(/C=C/C(=O)N2CCC=C(Br)C2=O)nc1C
-0.32

###

Test: Acute toxicity in ICR mouse assessed as survival rate at 150 mg/kg, ip administered for 14 days relative to control
Assay type: organism-based
Details: in vivo
reportedEndpoint: survival at 336 h (%)
Could you give me the number in %? Just the number is fine.

Look up and state reported survival at 336 h for Cc1nc(C)c(/C=C/C(=O)N2CCC=C(Cl)C2=O)nc1C
40

###

Test: Acute toxicity in ICR mouse assessed as survival rate at 100 mg/kg, ip administered for 14 days relative to control
Assay type: organism-based
Settings: in vivo
reportedEndpoint: survival at 336 h

Look up and state reported survival at 336 h for Cc1nc(C)c(/C=C/C(=O)N2CCC=C(Cl)C2=O)nc1C
80%

###

Experiment: Acute toxicity in ICR mouse assessed as survival rate at 400 mg/kg, ip administered for 14 days relative to control
Assay type: organism-based
Conditions: in vivo
reportedEndpoint: survival at 336 h

Look up and state reported survival at 336 h for Cc1nc(C)c(/C=C/C(=O)N2CCC=C(Cl)C2=O)nc1C
0%

###

Tested on: HCT-8
Experiment: Antiproliferative activity against human HCT8 cells after 72 hrs by MTT assay
Type: functional, cell-based
Settings: HCT-8, 72 h
reportedEndpoint: IC50 (nM)
Could you give me the number in nM? Just the number is fine.

molecule | reportedEndpoint | endpointUnit | number
Cc1nc(C)c(/C=C/C(=O)N2CCC=C(Cl)C2=O)nc1C | IC50 | nM | 1210

Next, consider the following molecule.
Look up and state reported IC50 for COc1cc(/C=C/C(=O)N2CCC=CC2=O)cc(OC)c1OC [PIPLARTINE]
4100
